The reported measurements were obtained from PubChem BioAssay (NCI).

# System: SNB-19 CNS
# Protocol: NCI tumour cell line growth inhibition, 48 h
Listed here: items and their measured TGI.

Molecule	TGI
NC(=O)c1cc(Br)ccc1NC(=O)/C=C/c1ccccc1	> 36.9 µM
COC(=O)/N=[N+](\[O-])C(c1ccccc1)c1ccccc1	> 100 µM
COC(=O)[C@@H](C)C[C@H](Cc1ccccc1)NC(=O)c1csc([C@@H](C[C@H](C(C)C)N(C)C(=O)[C@@H](NC(=O)[C@H]2CCCN2C)C2CC2)OC(C)=O)n1	> 25 µM
CC1(C)CCC(C)(C)c2cc(NC(=O)c3ccc(C(=O)O)cc3)ccc21	99.3 µM
Cc1cc2c(cc1Cl)SC(c1ccccc1O)NS2(=O)=O (stereo not drawn)	> 100 µM
Cc1c2c(nn1-c1ccc(S(=O)(=O)NC(=S)NC(=O)c3ccccc3)cc1)-c1ccccc1CC2	> 100 µM
C[N+]12C=CC=C1C(N1CCCC1)c1scc(-c3ccc(F)cc3)c12 (stereo not drawn)	> 100 µM
COc1ccc2c(c1)C(c1cc(OC)c3c(c1)OCO3)C1=C(COC1=O)N2 (stereo not drawn)	> 100 µM
CCOC(=O)/C(=C\NC(C)(C)CO)c1nc2ccccc2[nH]1	> 100 µM
O=C(O)c1cn(C2CC2)c2cc(N3CCN(Cc4c(O)ccc5ccccc45)CC3)c(F)cc2c1=O	> 100 µM
CCOc1cccc(-c2cc(=O)c3cc4c(cc3[nH]2)OCO4)c1	> 27.1 µM
C=CC1(c2ccc3ccccc3c2)OCC(CC)O1 (stereo not drawn)	> 100 µM
COc1ccc(/C=C2\CCC(CCN3CCOCC3)C2=O)cc1 (stereo not drawn)	> 100 µM

###

# Tested on: HOP-92 NSCLC
# Protocol: NCI tumour cell line growth inhibition, 48 h; in the data active = GI50 below about 0.43 µM; inactive = the rest
Possible outcomes: 1 = active, -1 = inactive

Compound	Discrete Label
CN(C)Cc1c(C(=O)NCCOc2ccc(C(=O)NO)cc2)oc2ccccc12	1
COc1ccc(Cn2cc3c(c2-c2cc(OC)c(OC)c(OC)c2)CCc2c(CO)noc2-3)cc1	-1
COc1cc(CCNC(=O)OC(C)(C)C)c2c(c1OC)SSSSS2	-1
Cc1ccccc1C(C(=O)NC1CCCCC1)N(C(=O)CNc1ccc(C#N)cc1)c1cccc(F)c1 (stereo not given)	-1
N#Cc1c(N/N=C\c2ccc(Cl)cc2)nc(N)nc1N1CCOCC1	-1
C=CCOC(=O)Nc1cccn([C@H](CC(C)C)C(=O)NCCC(C)C)c1=O	-1
Cc1ccccc1C(C(=O)NC1CCCCC1)N(C(=O)CNc1ncccc1F)c1cccc(F)c1 (stereo not given)	-1
CC/C=C\C[C@H](O)C/C=C1/C(=O)C=C[C@@H]1C/C=C\CCCCO	-1
CN(C)c1ccccc1[CH2][Ga]([Cl])[CH2]c1ccccc1N(C)C	1
Cc1sc2c(c1C)C(c1ccc(Cl)cc1)=N[C@@H](CC(=O)NCCCN1CCN(C)CC1)c1nnc(C)n1-2	1
CNC(=O)c1cccc(C#Cc2cncnc2Nc2ccc(OCc3cccc(F)c3)c(Cl)c2)c1	-1
Cn1c(=O)c(Oc2ccc(F)cc2F)cc2cnc(NC3CCOCC3)nc21	-1
Cc1c2c(nn1-c1ccc(S(=O)(=O)NC(=S)NC(=O)c3ccccc3)cc1)-c1ccccc1CC2	-1
O=C1NC(=NCCc2ccccn2)S/C1=C\c1ccc2ncccc2c1	-1
O=C(O)c1cn(C2CC2)c2cc(N3CCN(Cc4c(O)ccc5ccccc45)CC3)c(F)cc2c1=O	-1
CCNCCNc1cc(-c2ccc(C(F)(F)F)cc2)c(C#N)c2nc3cc(Cl)c(Cl)cc3n12	-1
COC(=O)c1oc2c(C(=O)/C=C/c3ccc(OC)cc3)c(OCCN3CCOCC3)ccc2c1C	-1
CCCN(CCC)c1ccc(C=O)c(C)c1	-1
CC(=O)OCCCC#CC#Cc1cccc(=O)o1	-1
C=C1C(=O)O[C@H]2[C@H]1CC/C(CNC(=O)/C=C/c1ccccc1F)=C\CC[C@@]1(C)O[C@@H]21	-1
